Ref: ChEMBL document CHEMBL3885861

Recorded TERMINAL_BW by entry
Species: Rattus norvegicus
MEASUREMENT PROTOCOL: Open TG-GATES - Regimen: Daily Repeat
Format: toxicity, organism-based, Sprague-Dawley
Parameters: regimen Daily Repeat, gender Male, age 6 weeks
CONDITION LABEL: in vivo, po, 1000 mg/kg, 72 h, route gavage, dose level High, time 3 day
PROPERTY: TERMINAL_BW (g)

MOLECULE: CCN1CCCC1CNC(=O)c1cc(S(N)(=O)=O)ccc1OC (centres undefined) [SULPIRIDE]
TEST RESULT: 230.5

MOLECULE: CC(C)(S)[C@@H](N)C(=O)O
TEST RESULT: 225.3

MOLECULE: O=C(N[C@H](CO)[C@H](O)c1ccc([N+](=O)[O-])cc1)C(Cl)Cl
TEST RESULT: 243.9

MOLECULE: O=C(O)c1cccnc1
TEST RESULT: 239.5
